tested on: BL-41; assay: Induction of apoptosis in human EBV deficient BL41 cells assessed as condensed and fragmented nuclei at 25 to 100 uM after 18 hrs by epifluorescent microscopy; format: functional, cell-based
Activity calls are given as the source filed them. No cut-off for these calls is given here.
Quantity measured: Activity

Solved entries:
| Compound | Reported value |
| --- | --- |
| COc1cc([C@H]2c3cc(O)c(OC)cc3C[C@H]3COC[C@@H]32)ccc1O | Active |
| COc1cc([C@H]2c3cc(O)c(OC)cc3C[C@H]3C(=O)OC[C@H]23)ccc1O | inactive |
| COc1cc(C[C@H]2COC(=O)[C@@H]2Cc2ccc(O)c(OC)c2)ccc1O | Active |
| COc1cc(C[C@H]2COC(=O)[C@@H]2C(O)c2ccc(O)c(OC)c2)ccc1O (some centres not stated) | inactive |
| COc1cc(C[C@H]2CO[C@H](c3ccc(O)c(OC)c3)[C@H]2CO)ccc1O | inactive |
| COc1cc([C@H]2c3cc(O)c(OC)cc3C[C@@H](CO)[C@@H]2CO)ccc1O | inactive |

Consider now this further compound.
Ask: # get_value(readout= Activity, system= BL-41) for COc1cc(C[C@H]2C(=O)OC[C@@H]2[C@H](O)c2ccc(O)c(OC)c2)ccc1O
Reply: inactive
